System: HaCat
Assay: Cytotoxic Profiling of Annotated Libraries Using Quantitative High-Throughput Screening (AID 1296008); further: on the % scale 0 is the no-effect control and ±100 the full control effect; nearly all actives have a fitted effect of over 60% in size
Conditions: Five cell lines viability, CellTiter-Glo ATP luminescence, 48-72 h; active compounds read low
Protocol: Cell-based phenotypic screening is a commonly used approach to discover biological pathways, novel drug targets, chemical probes and high-quality hit-to-lead molecules. […] A pintool (Kalypsys) was used to transfer 23 nL of compound solution to the 1536-well assay plates. […] Plates were left at room temperature for 10 min before imaging the ATP-coupled luminescence using a ViewLux microplate imager (PerkinElmer, Waltham, MA).
Results filed as inconclusive are left out.
metric: max response (%)

# compound, unitOfMeasurement, measured
measured = [
    ("COC(=O)CC(C)(O)CC(=O)OCc1ccc(O[C@@H]2O[C@H](CO)[C@@H](O)[C@H](O)[C@H]2O)cc1 (some centres undefined)", "%", 2.19),
    ("CCC(CC)C(=O)Nc1sc2c(c1C#N)CCC(C(C)(C)CC)C2 (centres undefined)", "%", 1.75),
    ("CCOC(=O)C(CCc1ccccc1)NC(C)C(=O)N1C(=O)N(C)CC1C(=O)O (centres undefined)", "%", -19.4),
    ("C=CC1(C)C=C2C(=O)OC(=O)C3=C(CCCC3(C)C)C2(O)CC1 (centres undefined)", "%", 1.65),
    ("C=C(C(=O)O)[C@@H]1CC[C@@]2(C)CC[C@H](O)[C@@]2(C(C)=O)C1", "%", -0.694),
    ("COc1c(C)c(OCC(O)C(C)(C)O)cc2c1COC2=O (centres undefined)", "%", -8.24),
    ("CC1=CC(=O)CC(C)(C)C1CCC(C)O[C@@H]1O[C@H](CO[C@@H]2OC[C@@H](O)[C@H](O)[C@H]2O)[C@@H](O)[C@H](O)[C@H]1O (some centres undefined)", "%", 4.17),
    ("COc1ccc(/C=C\\C(=O)O)c(O[C@@H]2O[C@H](CO)[C@@H](O)[C@H](O)[C@H]2O)c1", "%", -1.35),
    ("CC(C)C(=O)OC[C@H]1O[C@H](O[C@H]2O[C@H](CO)[C@@H](O)[C@H](O)[C@H]2O)[C@H](O)[C@@H](O)[C@@H]1O", "%", 0.512),
]

----------
Test system: SKOV3
Assay: Primary qHTS to identify gynecologic anti-cancer compounds using libraries of approved drugs and bioactive compounds (AID 1345084); further: nearly all actives have a fitted effect of over 55% in size
Details: Gynecologic cancer cell panel viability, ATPlite luminescence, 48 h; series mostly up to 57.5 µM
Inconclusive results are not listed. Calls of active or inactive are those of the source. The call rests on the fitted dose curve; in most records, active means well fitted cell-killing curve with a large enough effect; inconclusive means small, poorly fitted or top-dose-only effect, or effect the other way; inactive means flat fitted curve, though single readings scatter.
Classes used: y = active, n = inactive

# compound, systemUnderTest, group
records = [
    ("C=C1CCC2C(C)(C(=O)O)CCCC2(C)C1CCC(C)CC(=O)O (configuration not stated)", "SKOV3", "n"),
    ("C=C1OC2CC(C(=O)O)C=CC2NC1=O (configuration not stated)", "SKOV3", "n"),
    ("O=C(NCc1ccc(F)cc1)C(=O)c1c[nH]c2ccccc12", "SKOV3", "n"),
    ("C[C@H]1CC[C@@H]2N(C1)C[C@@H]1[C@H]([C@@H](O)[C@H](O)[C@]3(O)[C@H]1C[C@@]14OC5(O)[C@@H](C[C@@H](O)[C@@H]31)[C@]4(C)CC[C@@H]5O)[C@]2(C)O", "SKOV3", "n"),
    ("O=C1CCC=CC1(O)C(=O)OCc1ccccc1O[C@@H]1O[C@H](CO)[C@@H](O)[C@H](O)[C@H]1O (some centres not stated)", "SKOV3", "n"),
    ("O=C(OCC1=CC(O)C2C=CO[C@@H](O[C@@H]3O[C@H](CO)[C@@H](O)[C@H](O)[C@H]3O)C12)c1ccccc1 (some centres not stated)", "SKOV3", "n"),
    ("COc1cc(O)cc(C)c1C(=O)O[C@@H]1[C@H](O)[C@@H](CO)O[C@H]1n1ccc(=O)[nH]c1=O", "SKOV3", "n"),
    ("CC1(C)CCCC2(C)C1C(O)C=C(CO)C2(O)CO (configuration not stated)", "SKOV3", "n"),
    ("CC(=O)O[C@@H]1[C@@H](CO)O[C@@](CO)(O[C@H]2O[C@H](COC(=O)/C=C/c3ccccc3)[C@@H](O)[C@H](O)[C@H]2O)[C@H]1O", "SKOV3", "n"),
    ("COC(=O)N(C)c1c(N)nc(-c2nn(Cc3ccccc3F)c3ncccc23)nc1N", "SKOV3", "n"),
    ("CC(=O)C1=CCC2C3CCC4CC(O[C@@H]5O[C@H](CO)[C@@H](O[C@@H]6O[C@@H](C)[C@H](O)[C@@H](O)[C@H]6O)[C@H](O)[C@H]5O[C@@H]5O[C@H](CO)[C@@H](O)[C@H](O)[C@H]5O)CCC4(C)C3CCC12C (some centres not stated)", "SKOV3", "n"),
    ("CCC(Nc1ncnc2nc[nH]c12)c1nc2cccc(F)c2c(=O)n1-c1ccccc1 (configuration not stated)", "SKOV3", "n"),
    ("COC1C(=O)CCC2(CO2)C1(O)C1(C)OC1CC=C(C)C (configuration not stated)", "SKOV3", "n"),
    ("Cc1cc2c(c(=O)[nH]1)OC(C(O)CC(C)C)O2 (configuration not stated)", "SKOV3", "n"),
    ("CN1CCN(C2CCC(n3cc(-c4ccc(Oc5ccccc5)cc4)c4c(N)ncnc43)CC2)CC1 (configuration not stated)", "SKOV3", "y"),
    ("Cc1noc(=O)c2ccc(NC(=O)C(O)(CC(C)(C)c3cccc4c3OCC4)C(F)(F)F)cc12 (configuration not stated)", "SKOV3", "n"),
    ("CC(=O)O[C@H]1CC[C@H](C)[C@@]2(C)[C@H](OC(C)=O)c3c(C)coc3C(=O)[C@H]12", "SKOV3", "n"),
]

These measurements were taken from PubChem BioAssay (NCATS).
